Values compiled from the OligoGym collection.

# Target under test: HSP90B1
# Protocol summary: pooled miR-30 sensor sort-seq; sequence = guide strand; also: reference of the scale not given here
# Run parameters: shRNA
Measurement kind: sensor-assay potency score (higher = more potent)

Residue string	Target under test	Result
TTTTTAACCAACTCTTCTCTGG	HSP90B1	-0.121
TTTGAAGTGACAATAACCTTAT	HSP90B1	-0.631
TATCATTGTATTTATCATCAGC	HSP90B1	-0.644
TTTATCATCAGCAATCTTCTTG	HSP90B1	0.391
TTCTTGATCATGTCCAGCGTTT	HSP90B1	-0.303
TTTTGAAGTGACAATAACCTTA	HSP90B1	0.45
TTTCATCGAACTTCACTCCTTC	HSP90B1	0.873

----------
# Target under test: BAX
# Protocol summary: pooled miR-30 sensor sort-seq; sequence = guide strand
# Run parameters: shRNA
Measurement kind: sensor-assay potency score (higher = more potent)

Residue string	Target under test	Result
TTGCCGTCAGAAAACATGTCAG	BAX	-0.725
AATCATCCTCTGCAGCTCCATG	BAX	-1.42
TCGATCCTGGATGAAACCCTGA	BAX	-0.785
AAACATGTCAGCTGCCACTCGG	BAX	-0.504
TAGAAAAGGGCGACAACCCGGC	BAX	-0.132
TTCTTGGTGGACGCATCCTGAG	BAX	-1.72
TTACTGTCCAGTTCGTCCCCGA	BAX	-0.0654
TTGAGCACCAGTTTGCTGGCAA	BAX	0.213
TTGGATCCAGCCCAACAGCCGC	BAX	-1.52
TCATGATCTGCTCAGAGCTGGT	BAX	-1.61
ATGCGCTTGAGACACTCGCTCA	BAX	-1.61
TACTGTCCAGTTCGTCCCCGAT	BAX	-0.951
AACATGTCAGCTGCCACTCGGA	BAX	-1.25

----------
# Target under test: NPR1
# Protocol summary: pooled miR-30 sensor sort-seq; sequence = guide strand
# Run parameters: shRNA
Measured sensor-assay potency score (higher = more potent) by item
Measurement kind: sensor-assay potency score (higher = more potent)

Residue string	Result
TCATTGGTGAGTGAGTACCGGA	-1.01
TTAGACTCCATTCTTGAGGCTG	0.316
TAGACTCCATTCTTGAGGCTGT	0.414
TTGTCCAGGATGTTGCTGCTGT	-0.0226

----------
# Target under test: ACSM5
# Protocol summary: pooled miR-30 sensor sort-seq; sequence = guide strand
# Run parameters: shRNA
Please mark Condition met if the recorded sensor-assay potency score (higher = more potent) is equal to or greater than -0.7, and Condition not met if it falls below.

Residue string	Assigned class
TAACTTTGGCATCAACTCGGGG	Condition not met
TTGAAGAATTGATCACATCGTC	Condition met
TTGATCACATCGTCGTTTCTTC	Condition met
TCCACTTGATCTCTGCTCCTGT	Condition met
TTTGACATCTTTAGGGTCGAAG	Condition not met
AGAATTGATCACATCGTCGTTT	Condition not met
ATAACTTTGGCATCAACTCGGG	Condition met
TGACTTCGCAATTTACTCCTTT	Condition met
TTGATCTCTGCTCCTGTGCCAT	Condition not met

----------
# Target under test: GTF2H5
# Protocol summary: pooled miR-30 sensor sort-seq; sequence = guide strand
# Run parameters: shRNA
Measurement kind: sensor-assay potency score (higher = more potent)

Residue string	Result
AATGATGAACTTCTTCCCCAGG	-1.25
TTAATTCACCCACTCGCTCCTG	-0.542
TGAATGATGAACTTCTTCCCCA	-0.103
TACAGCAGAAACTGCTTCATGG	-0.967
TATTACAAAGACGTGAGTGTCA	0.236
ATCAATGTCTTGAATGATGAAC	-1.38
TCTTGAATGATGAACTTCTTCC	-0.75

----------
# Target under test: CTSH
# Protocol summary: pooled miR-30 sensor sort-seq; sequence = guide strand
# Run parameters: shRNA
Classification by sensor-assay potency score (higher = more potent) follows these ranges: band 1 (below -1), band 2 (-1 to below -0.02), band 3 (-0.02 or more)

Residue string	Assigned class
TTCTCCATACCCAACAGCCAGT	band 1
TTCTATACATCATGAAGTCCTG	band 2
TTCAGTGCCATTTTAAATGTGT	band 3
TGCTTAGACATCCATGACTTGA	band 1
TTATCTTCCTCCAGTTGCTGGC	band 2
TTCAGCAAAGCTCATGTCTGAA	band 2
TTTGGTGGCTGAGCAATTCTGA	band 2
AAGGACAGCATCTTTCCGGTTG	band 3
TCGTCATAGATTGTGATGTTGG	band 2

----------
# Target under test: AKR1A1
# Protocol summary: pooled miR-30 sensor sort-seq; sequence = guide strand
# Run parameters: shRNA
Measurement kind: sensor-assay potency score (higher = more potent)

Residue string	Result
TAAAGGTGAAGTCAAACACCTT	-1.29
TTGATGTTCTGAAGGATTCGAG	-0.236
TACCTGACCAGGCTCACTCTTC	-0.753
TGTCACAAACAGCTCCTCCCGA	-0.337

----------
# Target under test: ZFAND2A
# Protocol summary: pooled miR-30 sensor sort-seq; sequence = guide strand
# Run parameters: shRNA
Catalogue of sensor-assay potency score (higher = more potent) values
Measurement kind: sensor-assay potency score (higher = more potent)

Residue string	Target under test	Result
TCTCTTTCTTCTTGCAGCCCTC	ZFAND2A	-1.15
AGTCTTTTCTGAACAATGCTTC	ZFAND2A	-1.25
TTTCTGAACAATGCTTCCCCAA	ZFAND2A	-0.747
TTACAGAGTGGGCATACTGGGA	ZFAND2A	-0.899
TTCTGAACAATGCTTCCCCAAA	ZFAND2A	-1.18
TACTGGAAGAAAATCTAGCTGC	ZFAND2A	0.313

----------
# Target under test: TNKS2
# Protocol summary: pooled miR-30 sensor sort-seq; sequence = guide strand
# Run parameters: shRNA
Could you label it Condition met if measured sensor-assay potency score (higher = more potent) is -0.3 or higher, and Condition not met otherwise?

Residue string	Assigned class
TAAATTTCCATAAATCAGCTAC	Condition met
TTTTGATTCGAGTAACATCAGC	Condition not met
TATACTTTATTAGTAGAGCTGC	Condition met
TTACTCTGTTATATCCTGCTGC	Condition met
TTATGCTAAAATCTACTCCTGG	Condition met

----------
The entries below come with measured sensor-assay potency score (higher = more potent) values attached.
# Target under test: GAA
# Protocol summary: pooled miR-30 sensor sort-seq; sequence = guide strand
# Run parameters: shRNA
Measurement kind: sensor-assay potency score (higher = more potent)

Residue string	Target under test	Result
AATCTTATTAACACAGAGCAGC	GAA	-1.53
TTGATCGTGAAGTGGAGGCGGT	GAA	-0.412
TCCTCGGAGAACTCCACGCTGT	GAA	-1.76
TTGTGGTTCCGCATGAAGGGGT	GAA	-0.144
TAGAGGTTCGCACCGGGCGTGG	GAA	-1.37

----------
A collection of sequences and their measured sensor-assay potency score (higher = more potent)
# Target under test: C11orf53
# Protocol summary: pooled miR-30 sensor sort-seq; sequence = guide strand
# Run parameters: shRNA
Measurement kind: sensor-assay potency score (higher = more potent)

Residue string	Target under test	Result
TTACTGTTGTGGAAGTCTGAGT	C11orf53	-0.608
TAGGTCATTTGACACCGTCATG	C11orf53	-1.72
TCAGATAAGAAAGATCTTCTGA	C11orf53	0.556
TGACACACCTAAAACAATCTTT	C11orf53	0.469
TTATTCTGAAAATCCAGTCCTG	C11orf53	0.403
TATTCTGAAAATCCAGTCCTGA	C11orf53	-0.0201
TAAATAGGAAGTGAGCTGGGTC	C11orf53	0.00724
TTTACTGTTGTGGAAGTCTGAG	C11orf53	-0.231

----------
# Target under test: RHOH
# Protocol summary: pooled miR-30 sensor sort-seq; sequence = guide strand
# Run parameters: shRNA
Measurement kind: sensor-assay potency score (higher = more potent)

Residue string	Target under test	Result
TGTTCTCGTACACTGTGGGCTT	RHOH	-0.393
TACACTGTGGGCTTGTAGGCCT	RHOH	-0.53
TTCTTCAAGTTCAGGAATGAGT	RHOH	-0.86
TTGATGGAGAAGAGCCTCCTTC	RHOH	-0.911

----------
# Target under test: NR4A3
# Protocol summary: pooled miR-30 sensor sort-seq; sequence = guide strand
# Run parameters: shRNA
Tick true if sensor-assay potency score (higher = more potent) is -0.3 or greater. Tick false if sensor-assay potency score (higher = more potent) is less than -0.3.

Residue string	Assigned class
TGGTCTTTTAAACTGCTTGTGA	false
TTTTTCTGCACTGTTCTCTTGA	true
ATCGACAGTACTGACATCGGTT	false
TAATGTCTGATCTTCTTTGGGG	true
TCCAACACTGAGACACTTCTGA	true
